Target: ALDH1A1 enzyme (Homo sapiens, UniProt P00352)
Sequence (P00352 whole entry): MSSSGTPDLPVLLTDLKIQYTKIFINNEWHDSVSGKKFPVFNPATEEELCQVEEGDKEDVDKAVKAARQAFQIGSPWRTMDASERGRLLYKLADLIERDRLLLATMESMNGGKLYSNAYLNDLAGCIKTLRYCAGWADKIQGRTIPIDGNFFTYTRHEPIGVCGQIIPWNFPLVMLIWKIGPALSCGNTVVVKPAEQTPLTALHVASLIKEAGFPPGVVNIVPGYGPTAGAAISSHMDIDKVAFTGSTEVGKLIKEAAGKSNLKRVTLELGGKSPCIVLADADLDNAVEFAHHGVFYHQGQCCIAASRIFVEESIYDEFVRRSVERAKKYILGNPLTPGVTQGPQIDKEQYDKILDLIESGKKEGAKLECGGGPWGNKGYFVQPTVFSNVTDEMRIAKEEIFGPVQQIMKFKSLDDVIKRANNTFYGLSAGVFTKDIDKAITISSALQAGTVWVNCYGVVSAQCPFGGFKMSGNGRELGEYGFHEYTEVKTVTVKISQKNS
Assay: ALDH1A1 enzymatic assay (in vitro)
Type: biochemical
Conditions: ALDH1A1 enzyme 20 nM, NAD+ 1 mM, propionaldehyde 80 μM; read-out: ALDH1A1 IC50
Counter-ions that a name gives are not always drawn.
QUANTITY: IC50

// solved cases for IC50 follow
CC1(C#N)CCN(c2c(C(=O)N3CCN(S(=O)(=O)N4CCCC4)CC3)cnc3cc(F)c(F)cc23)CC1	1000 to 10000 nM
COc1ccc2ncc(C(=O)N3CCN(c4cccnc4)CC3)c(N3CCC4(CC3)OCCO4)c2c1 [Example 14, TFA]	< 500 nM
CS(=O)(=O)N1CCN(C(=O)c2cnc3ccc(F)cc3c2N2CCC3(CCCC3=O)CC2)CC1	< 500 nM

*Q* Looking for the measured IC50 of `O=C(c1cnc2ccc(F)cc2c1N1CCC2(CCCC2=O)CC1)N1CCN(C(=O)C2CC2)CC1` , can you help?
*A* < 500 nM

*Q* Looking for the measured IC50 of `O=C(c1cnc2cc(F)c(F)cc2c1N1CCC2(CC1)OCCO2)N1CCN(S(=O)(=O)N2CCCC2)CC1` , can you help?
*A* < 500 nM

*Q* Looking for the measured IC50 of `CC1(C#N)CCN(c2c(C(=O)N3CCC(C(=O)C4CC4)CC3)cnc3c(F)cc(F)cc23)CC1` , can you help?
*A* < 500 nM

*Q* Looking for the measured IC50 of `CC1(C#N)CCN(c2c(C(=O)N3CCN(S(=O)(=O)C4CC4)CC3)cnc3ccc(Cl)cc23)CC1` , can you help?
*A* < 500 nM

* * *

Target: ALDH1A1 enzyme (Homo sapiens, UniProt P00352)
Assay: ALDH1A1 enzymatic assay (in vitro)
Assay type: biochemical
Details: ALDH1A1 enzyme 20 nM, NAD+ 1 mM, propionaldehyde 80 μM; read-out: ALDH1A1 IC50
pIC50: −log10 of the molar value. Counter-ions that a name gives are not always drawn.
# maps each entry to its pIC50

CN(C)C(=O)N1CCN(C(=O)c2cnc3c(F)cc(F)cc3c2N2CCC3(CC2)OCCO3)CC1 [Example 180]	> 6.30
COc1ccc2ncc(C(=O)N3CCN(C(=O)C4CC4)CC3)c(N3CCC(C)(OC)CC3)c2c1 [Example 26]	> 6.30
O=C(C1CC1)C1CCN(C(=O)c2cnc3c(F)cc(F)cc3c2N2CCC3(CC2)OCCO3)CC1 [Example 192]	> 6.30
CNC(=O)C1CCN(C(=O)c2cnc3ccc(F)cc3c2-c2ccc(C3(C#N)CC3)cc2)CC1 [Cpd. 333]	> 6.30
CN(C)S(=O)(=O)N1CCN(C(=O)c2cnc3c(F)cc(F)cc3c2N2CCC3(CC2)OCCO3)CC1 [Example 162]	> 6.30
CC1(C#N)CCN(c2c(C(=O)N3CCN(C(=O)C4CC4)CC3)cnc3ccccc23)CC1 [Example 93]	> 6.30
CC1(C#N)CCN(c2c(C(=O)N3CCN(S(C)(=O)=O)CC3)cnc3ccccc23)CC1 [Example 97]	> 6.30
CCNC(=O)N1CCN(C(=O)c2cnc3ccccc3c2N2CCC(C)(C#N)CC2)CC1 [Example 99]	5.00 to 6.00
COc1ccc2c(N3CCC(C)(C#N)CC3)c(C(=O)N3CCN(S(C)(=O)=O)CC3)cnc2c1 [Example 105]	> 6.30
CCC(=O)N1CCN(C(=O)c2cnc3cc(OC)c(OC)cc3c2N2CCC(C)(C#N)CC2)CC1 [Example 110]	> 6.30

*Q* Looking for the measured pIC50 of N#CC1(c2ccccc2)CCN(c2c(C(=O)Nc3cnn(CCO)c3)cnc3ccc(F)cc23)CC1 [Cpd. 345] , can you help?
*A* > 6.30

*Q* Looking for the measured pIC50 of CC1(C#N)CCN(c2c(C(=O)N3CCN(C(=O)N4CCCC4)CC3)cnc3c(F)cc(F)cc23)CC1 [Example 165] , can you help?
*A* 5.00 to 6.00

*Q* Looking for the measured pIC50 of CCNC(=O)N1CCN(C(=O)c2cnc3ccc(OC)cc3c2N2CCC3(CC2)OCCO3)CC1 [Example 43] , can you help?
*A* > 6.30

*Q* Looking for the measured pIC50 of COc1ccc2ncc(C(=O)N3CCN(C(=O)C4CC4)CC3)c(N3CCC4(CCCC4)CC3)c2c1 [Example 17, TFA] , can you help?
*A* > 6.30

*Q* Looking for the measured pIC50 of CC1(C#N)CCN(c2c(C(=O)N3CCN(S(C)(=O)=O)C4(CC4)C3)cnc3ccc(F)cc23)CC1 [Example 230] , can you help?
*A* > 6.30

*Q* Looking for the measured pIC50 of C[C@@H]1CN(C(=O)C2CC2)CCN1C(=O)c1cnc2ccc(F)cc2c1N1CCC(C)(C#N)CC1 [Example 239] , can you help?
*A* > 6.30

*Q* Looking for the measured pIC50 of CC1(C#N)CCN(c2c(C(=O)N3CCN(S(C)(=O)=O)CC3)cnc3c(F)c(F)c(F)cc23)CC1 [Example 138] , can you help?
*A* > 6.30

*Q* Looking for the measured pIC50 of CS(=O)(=O)N1CCN(C(=O)c2cnc3ccc(F)cc3c2N2CCC3(CCOC3=O)CC2)CC1 [Example 249] , can you help?
*A* > 6.30

*Q* Looking for the measured pIC50 of N#CC1(c2ccc(-c3c(C(=O)N4CC5(C4)CS(=O)(=O)C5)cnc4ccc(F)cc34)cc2)CC1 [Cpd. 332] , can you help?
*A* > 6.30

*Q* Looking for the measured pIC50 of CC(=O)N1CCN(C(=O)c2cnc3ccccc3c2N2CCC(C)(C#N)CC2)CC1 [Example 96] , can you help?
*A* 5.00 to 6.00

*Q* Looking for the measured pIC50 of C[C@H]1CN(C(=O)C2CC2)CCN1C(=O)c1cnc2ccc(F)cc2c1N1CCC(C)(C#N)CC1 [Example 238] , can you help?
*A* 5.00 to 6.00

*Q* Looking for the measured pIC50 of COc1ccc2ncc(C(=O)N3CCN(C(=O)C4CC4)CC3)c(N3CCC(C(F)(F)F)CC3)c2c1 [Example 28] , can you help?
*A* 5.00 to 6.00

*Q* Looking for the measured pIC50 of CC(C)C1CCN(c2c(C(=O)N3CCN(C(=O)C4CC4)CC3)cnc3ccc(F)cc23)CC1 [Example 74] , can you help?
*A* > 6.30
